Just for reference, ChEMBL document CHEMBL1157539 is where these values come from.

- Test system: HepG2
- MEASUREMENT_PROTOCOL: GSK_TCMDC: Percent inhibition of human HepG2 cell line. Test compounds present at 10uM.
- Format: functional
Quick rule: Inhibition of at least 30% means yes, below that means no.

Take a look at these entries with their results.
O=C(Nc1ccc(OC2CCN(Cc3ccccc3)CC2)c(Cl)c1)c1ccsc1.O=C(O)C(F)(F)F
no
CCN(CC)CCCCOc1ccc2c(c1)C(=O)c1cc(OCCCCN(CC)CC)ccc1-2.Cl
no
C[C@H](NC(=O)c1c(CN2CCC(N3CCCCC3)CC2)c(-c2ccccc2)nc2cc(O)ccc12)C1CCCCC1
yes
CN1CCN(Cc2ccc(-c3ccc4c(Nc5ccc(Oc6ccccc6)cc5)ccnc4c3)o2)CC1
no
O=C(O[C@@H]1CN[C@H](C#Cc2cc3c(Nc4ccc5c(cnn5Cc5ccccc5)c4)ncnc3s2)C1)N1CCCC1
no

Q: Reported Inhibition reaches at least 30% for COc1ccc(C2c3cc(OC)c(OC)cc3C(=NO)C2C)cc1OC (stereo not given) ?
Result: no

Q: Dear colleague, could you confirm whether Cl.Nc1c(C(=O)NCCCCN2CCN(c3nsc4ccccc34)CC2)sc2ccccc12 has Inhibition at or above 30%?
Result: no

Q: Dear colleague, could you confirm whether CCN(CC)CCCNc1nccc(N2CCc3ncnc(Nc4ccc(OCc5cccc(F)c5)c(Cl)c4)c3C2)n1 has Inhibition at or above 30%?
Result: yes

Q: # bool: Inhibition of CCCCCCN1CCN(Cc2cccc(NC(=O)c3cccc(OCC)c3)c2)CC1.O=C(O)C(F)(F)F >= 30%
Result: yes

Q: Entry COc1ccc(-c2cccc(NC(=O)c3ccc(F)cc3)c2)cc1CN1CCCN(C)CC1.O=C(O)C(F)(F)F : is its Inhibition no less than 30%?
Result: no

Q: Determine whether measured Inhibition meets or exceeds 30% for COC(=O)c1cccc(CNCc2ccc(-c3ccc(-c4nc5cccc(C)c5[nH]4)s3)cc2)c1.O=C(O)C(F)(F)F
Result: no

Q: hey, is Inhibition for this one >= 30%? O=C(O)c1ccc(OCOCOc2ccc(C(=O)O)c(O)c2)cc1O
Result: no

Q: State whether the measured Inhibition reaches 30%, counting equality as reaching it, for Cc1ccc(Cn2ncc(N3CC(C)NC(C)C3)c(Cl)c2=O)cc1NC(=O)Nc1ccc(-c2ccccc2)cc1.O=C(O)C(F)(F)F (stereo not given)
Result: yes

Q: Check this compound for Inhibition at or above 30%: CO/C(=C\C=C\c1cc2cc(Cl)c(Cl)cc2[nH]1)C(=O)NCCCN1CCN(c2cccc(O)c2)CC1
Result: yes

Q: For this compound, is measured Inhibition 30% or higher? COc1cc(C(=O)N2C(c3nccs3)C(C(=O)N(OC)C(C)c3ccccc3)CC2(CC(C)C)C(=O)OC(C)(C)C)ccc1C(C)(C)C (stereo not given)
Result: no

Q: Does the reported Inhibition for CCN(C(=O)c1ccc(NC(=O)c2cccs2)cc1)c1nc2c(C)cccc2s1 fall at or above the 30% mark?
Result: no

Q: Textbook exercise: given the entry Cl.c1ccc(-c2cc(NCCCCCCCCNc3cc(-c4ccccc4)nc4ccccc34)c3ccccc3n2)cc1 , state whether its Inhibition is greater than or equal to 30%.
Result: yes

Q: Is the recorded value of Inhibition equal to or greater than 30% for this compound? Cc1cccc2nc(-c3ccc(-c4cccc(NC(=O)c5ccncc5)c4)cc3)[nH]c12
Result: yes

Q: API: above_or_equal(metric=Inhibition, cutoff=30%) for item CCOc1ccc(C2CCN(CCN3CCC(NC(=O)c4ccc(-c5ccc(C(F)(F)F)cc5)cc4)CC3)CC2)c(OCC2CC2)c1
Result: no

Q: Check if Inhibition >= 30% (inclusive). Item: O=C(Nc1nc2cc(S(=O)(=O)NCCc3ccc(F)cc3)ccc2n1CCCn1ccnc1)c1ccc(Cl)cc1.O=C(O)C(F)(F)F
Result: no

Q: Quick check, Inhibition >= 30%? O=C(Nc1ccc(Cn2ncc(N3CCCNCC3)c(Cl)c2=O)cc1)Nc1cccc(Oc2ccccc2)c1.O=C(O)C(F)(F)F
Result: no

Q: Say whether CCCc1cnc2nc(N)nc(N)c2c1C shows Inhibition of 30% or more.
Result: yes

Q: For this compound, is measured Inhibition 30% or higher? CC(C)C[C@H](NC(=O)c1cc2ccccc2s1)C(=O)N[C@H]1CCN(Cc2ccc(I)c(OC3CCN(C)C3)c2)C1.O=C(O)C(F)(F)F (stereo not given in full)
Result: yes

Q: Determine whether measured Inhibition meets or exceeds 30% for Clc1ccc(-c2ccc(C=NNc3nc(=Nc4ccccc4)[nH]c(=Nc4ccccc4)[nH]3)o2)cc1Cl
Result: no

Q: State whether the measured Inhibition reaches 30%, counting equality as reaching it, for Clc1cc(Cl)c2cc(CN[C@H]3CCC[C@@H]3CNc3nc4ccccc4[nH]3)[nH]c2c1
Result: yes

Q: Entry Cl.Nc1ncnc2occ(-c3ccc(NC(=O)Nc4cc(C(F)(F)F)ccc4F)cc3)c12 [GW770249A] : is its Inhibition no less than 30%?
Result: yes

Q: Has CC(C)CNCc1cccc(-c2cccc(CNCCCN3CCN(C)CC3)c2)c1.O=C(O)C(F)(F)F a recorded Inhibition greater than or equal to 30%?
Result: no

Q: For this compound, is measured Inhibition 30% or higher? O=C(Nc1ccc(OC2CCN(Cc3ccccc3)C2)c(Cl)c1)c1ccc(F)cc1.O=C(O)C(F)(F)F (stereo not given)
Result: no

Q: Dear colleague, could you confirm whether COc1cccc(C2CCN(CCN3CCC(NC(=O)c4ccc(-c5ccc(C(F)(F)F)cc5)cc4)CC3)CC2)c1 has Inhibition at or above 30%?
Result: yes
